- System Tested: Apoptosis regulator Bcl-2 (Homo sapiens)
- Assay Remarks: Inhibition of Bid-BH3 peptide binding to Bcl-2 (unknown origin) after 3 hrs by fluorescence polarization method
- Condition Context: read-out: Ki
Threshold 600 nM: Ki strictly smaller gives Condition met, otherwise Condition not met.

{"Compound String": "O=C(N[C@@H](Cc1ccc(OCc2ccc(-c3ccccc3)cc2)cc1)C(=O)NS(=O)(=O)c1ccc(Cl)c([N+](=O)[O-])c1)c1ccc2ccccc2c1", "Assigned Class": "Condition met"}
{"Compound String": "CC(C)(C)OC(=O)N[C@@H](Cc1ccc(OCc2ccc(C#N)cc2)cc1)C(=O)NS(=O)(=O)c1ccc(NCCCc2ccccc2)c([N+](=O)[O-])c1", "Assigned Class": "Condition not met"}
{"Compound String": "Cc1ccc(-c2ccc(COc3ccc(C[C@H](NC(=O)OC(C)(C)C)C(=O)NS(=O)(=O)c4ccc(NCCOc5ccccc5)c([N+](=O)[O-])c4)cc3)cc2)cc1", "Assigned Class": "Condition not met"}
{"Compound String": "CC(C)(C)OC(=O)N[C@@H](Cc1ccc(OCc2ccc(-c3ccccc3)cc2)cc1)C(=O)NS(=O)(=O)c1ccc(Cl)c([N+](=O)[O-])c1", "Assigned Class": "Condition not met"}
{"Compound String": "CC(C)(C)OC(=O)N[C@@H](Cc1ccc(OCc2ccc(-c3ccccc3)cc2)cc1)C(=O)NS(=O)(=O)c1ccccc1", "Assigned Class": "Condition not met"}
{"Compound String": "Cc1ccc(CC(=O)N[C@@H](Cc2ccc(OCc3ccccc3)cc2)C(=O)NS(=O)(=O)c2ccc(NCCCc3ccccc3)c([N+](=O)[O-])c2)cc1", "Assigned Class": "Condition met"}
{"Compound String": "Cc1ccc(CC(=O)N[C@@H](Cc2ccc(OCc3ccc(-c4ccccc4)cc3)cc2)C(=O)NS(=O)(=O)c2ccc(NCCCc3ccccc3)c([N+](=O)[O-])c2)cc1", "Assigned Class": "Condition met"}
{"Compound String": "CCCCCC(=O)N[C@@H](Cc1ccc(OCc2ccc(-c3ccccc3)cc2)cc1)C(=O)NS(=O)(=O)c1ccc(Cl)c([N+](=O)[O-])c1", "Assigned Class": "Condition met"}

* * *

Measured IC50 accompanies every entry in the list below.
- Test system: RS4-11
- Assay Remarks: Antiproliferative activity against human RS4:11 cells after 72 hrs by MTT assay
- Assay type: functional, cell-based
- Condition Context: RS4-11, 72 h

{"Compound String": "Cc1ccc(CC(=O)N[C@@H](Cc2ccc(OCc3ccccc3)cc2)C(=O)NS(=O)(=O)c2ccc(NCCCc3ccccc3)c([N+](=O)[O-])c2)cc1", "Unit Tag": "µM", "IC50": 16.8}
{"Compound String": "CC(C)(C)OC(=O)N[C@@H](Cc1ccc(OCc2ccc(-c3ccccc3)cc2)cc1)C(=O)NS(=O)(=O)c1ccc(Cl)c([N+](=O)[O-])c1", "Unit Tag": "µM", "IC50": 14.1}
{"Compound String": "Cc1ccc(CC(=O)N[C@@H](Cc2ccc(OCc3ccc(-c4ccccc4)cc3)cc2)C(=O)NS(=O)(=O)c2ccc(NCCCc3ccccc3)c([N+](=O)[O-])c2)cc1", "Unit Tag": "µM", "IC50": 3.39}

* * *

- System Tested: Apoptosis regulator Bcl-2 (Homo sapiens, UniProt P10415)
- Sequence (P10415 whole entry): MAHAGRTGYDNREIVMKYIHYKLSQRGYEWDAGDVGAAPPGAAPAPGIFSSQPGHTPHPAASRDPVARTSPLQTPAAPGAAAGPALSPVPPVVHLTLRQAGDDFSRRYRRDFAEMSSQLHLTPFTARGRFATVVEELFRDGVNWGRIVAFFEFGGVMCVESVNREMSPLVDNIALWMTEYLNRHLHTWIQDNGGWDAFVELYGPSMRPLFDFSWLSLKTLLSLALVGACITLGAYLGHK
- Assay Remarks: Inhibition of Bid-BH3 peptide binding to Bcl-2 (unknown origin) after 3 hrs by fluorescence polarization method
- Condition Context: read-out: Ki
pKi: −log10 of the molar value.

{"Compound String": "CC(C)(C)OC(=O)N[C@@H](Cc1ccc(OCc2ccccc2)cc1)C(=O)NS(=O)(=O)c1ccc(NCCCc2ccccc2)c([N+](=O)[O-])c1", "pKi": 5.82}
{"Compound String": "CC(C)(C)OC(=O)N[C@@H](Cc1ccc(OCc2ccc(Oc3ccccc3)cc2)cc1)C(=O)NS(=O)(=O)c1ccc(Cl)c([N+](=O)[O-])c1", "pKi": 6.15}
{"Compound String": "Cc1ccc(-c2ccc(COc3ccc(C[C@H](NC(=O)OC(C)(C)C)C(=O)NS(=O)(=O)c4ccc(Cl)c([N+](=O)[O-])c4)cc3)cc2)cc1", "pKi": 6.41}
{"Compound String": "O=C(N[C@@H](Cc1ccc(OCc2ccc(-c3ccccc3)cc2)cc1)C(=O)NS(=O)(=O)c1ccc(Cl)c([N+](=O)[O-])c1)c1cccnc1", "pKi": 6.24}
{"Compound String": "CC(C)(C)OC(=O)N[C@@H](Cc1ccc(OCc2ccc(-c3ccc(Cl)cc3)cc2)cc1)C(=O)NS(=O)(=O)c1ccc(Cl)c([N+](=O)[O-])c1", "pKi": 6.24}
{"Compound String": "Cc1ccc(CC(=O)N[C@@H](Cc2ccc(OCc3ccc(-c4ccccc4)cc3)cc2)C(=O)NS(=O)(=O)c2ccc(Cl)c([N+](=O)[O-])c2)cc1", "pKi": 5.96}

* * *

- System Tested: Apoptosis regulator Bcl-2 (Homo sapiens, UniProt P10415)
- Assay Remarks: Inhibition of Bid-BH3 peptide binding to Bcl-2 (unknown origin) after 3 hrs by fluorescence polarization method

{"Compound String": "CC(C)(C)OC(=O)N[C@@H](Cc1ccc(OCc2ccc(-c3ccccc3)cc2)cc1)C(=O)NS(=O)(=O)c1ccc(NCCCc2ccccc2)c([N+](=O)[O-])c1", "System Tested": "Apoptosis regulator Bcl-2 (Homo sapiens, UniProt P10415)", "Ki": "Not Active"}
{"Compound String": "O=C(N[C@@H](Cc1ccc(OCc2ccc(-c3ccccc3)cc2)cc1)C(=O)NS(=O)(=O)c1ccc(NC2CCCCC2)c([N+](=O)[O-])c1)c1ccc2ccccc2c1", "System Tested": "Apoptosis regulator Bcl-2 (Homo sapiens, UniProt P10415)", "Ki": "Not Active"}
{"Compound String": "Cl.N[C@@H](Cc1ccc(OCc2ccc(-c3ccccc3)cc2)cc1)C(=O)NS(=O)(=O)c1ccc(Cl)c([N+](=O)[O-])c1", "System Tested": "Apoptosis regulator Bcl-2 (Homo sapiens, UniProt P10415)", "Ki": "Not Active"}

Source: ChEMBL document CHEMBL4229556
